Origin of values: PubChem BioAssay AID2012

target: Eukaryotic translation initiation factor 4H (Homo sapiens); test: human eIF4H binding inhibitors, primary screen, translation initiation inhibitor project, biochemical, uHTS, fluorescence polarization (AID 2012); conditions: eIF4H fluorescence polarization binding assay; at 35 µM; active compounds read high;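 note: calls also rest on retests at 20 µM and on dose response follow-up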
Hit rate of the full screen: of about 290,000 compounds, about 2,700 (0.93%) were called active. For the sample, actives were picked, then their nearest neighbours and some compounds at random.
Can you tell me inhibition for the items I'm about to list?
Numbers only, in %.

Look over these answered cases.
>>> valueobserved("COc1ccc(Cl)cc1NC(=O)CCN1CCOCC1")
-3.3
>>> valueobserved("O=C(O)Cn1c(Cc2ccccc2)nc2ccccc21")
-6.9
>>> valueobserved("Cc1ccc(CNC(=O)CCS(=O)(=O)c2ccc3c(c2)CC(C)N3C(=O)C2CC2)o1 (stereo unspecified)")
-4.8

I need inhibition for every entry listed below, if you could help.
1. NS(=O)(=O)c1ccc(CCNC(=O)Nc2ccc(Cl)cc2)cc1
2. COc1ccc(-c2c(-c3ccc(OC)cc3O)nc(C)nc2C(F)(F)F)cc1
3. COc1ccccc1OCCCC(=O)Nc1ccc2c(c1)OCCO2

# output
1: -4.8; 2: -5.5; 3: -2.5
